- run_description: GI S9 stability - no PMSF
- Format: in vitro ADME
- condition_summary: pH 7.4; human intestinal S9, PMSF-free; read-out: GIS9-HUMAN-NoPMSF T1/2
recorded_metric: log10(half-life at 2 µM) (log10 of the value in min)
Record value = log10 of half-life at 2 µM given in min.

CC(C)OC(=O)OC[C@H]1O[C@@](C#N)(c2ccc3c(NC(=O)OC(C)(C)C)ncnn23)[C@H](OC(=O)OC(C)C)[C@@H]1OC(=O)OC(C)C: -0.07

Give me log10(half-life at 2 µM) for each of these molecules, listed below.
1. N#C[C@@]1(c2ccc3c(N)ncnn23)O[C@H](COC(=O)OC2CCOCC2)[C@@H](O)[C@H]1O
2. N#C[C@@]1(c2ccc3c(N)ncnn23)O[C@H](COC(=O)OC23CC4CC(CC(C4)C2)C3)[C@@H](O)[C@H]1O
3. N#C[C@@]1(c2ccc3c(N)ncnn23)O[C@H](COC(=O)OCC2(C(F)(F)F)CC2)[C@@H](O)[C@H]1O

[1.18, 2.45, -0.22]

// each listed molecule needs a value for log10(half-life at 2 µM)
1. CC(C)(OC(=O)OC[C@H]1O[C@@](C#N)(c2ccc3c(N)ncnn23)[C@H](O)[C@@H]1O)c1ccncc1
2. N#C[C@@]1(c2ccc3c(N)ncnn23)O[C@H](COC(=O)OCCN2CCOCC2)[C@@H](O)[C@H]1O
3. CC1(OC(=O)OC[C@H]2O[C@@](C#N)(c3ccc4c(N)ncnn34)[C@H](O)[C@@H]2O)CCCCC1
4. CC1(OC(=O)OC[C@H]2O[C@@](C#N)(c3ccc4c(N)ncnn34)[C@H](O)[C@@H]2O)CCCC1
5. COC(=O)OC[C@H]1O[C@@](C#N)(c2ccc3c(N)ncnn23)[C@@H]2OC(=O)O[C@@H]21
6. COC(=O)[C@H]([C@@H](C)OC(=O)OC[C@H]1O[C@@](C#N)(c2ccc3c(N)ncnn23)[C@H](O)[C@@H]1O)N(C)C
7. CC1(COC(=O)OC[C@H]2O[C@@](C#N)(c3ccc4c(N)ncnn34)[C@H](O)[C@@H]2O)CCCC1
8. COC(=O)O[C@H]1[C@@H](OC(=O)OC)[C@](C#N)(c2ccc3c(N)ncnn23)O[C@@H]1COC(=O)OC(C)C

1. 2.72
2. 2.38
3. 2.18
4. 1.22
5. -0.02
6. 1.86
7. -0.21
8. -0.19

Batch of 4 molecules: report log10(half-life at 2 µM) for each.
1. N#C[C@@]1(c2ccc3c(N)ncnn23)O[C@H](COC(=O)OC2CC(F)(F)C2)[C@@H](O)[C@H]1O
2. COc1ccc(CCOC(=O)OC[C@H]2O[C@@](C#N)(c3ccc4c(N)ncnn34)[C@H](O)[C@@H]2O)cc1
3. CCCOC(=O)OC[C@H]1O[C@@](C#N)(c2ccc3c(N)ncnn23)[C@H](O)[C@@H]1O
4. N#CC1(COC(=O)OC[C@H]2O[C@@](C#N)(c3ccc4c(N)ncnn34)[C@H](O)[C@@H]2O)CC1

1. -0.23
2. 0.25
3. -0.24
4. 0.61

For each entry beneath this line, provide reported log10(half-life at 2 µM).
1. CC(=O)O[C@H]1[C@@H](OC(C)=O)[C@](C#N)(c2ccc3c(N)ncnn23)O[C@@H]1COC(=O)OC(C)C
2. CCOC(=O)[C@H](C)OC(=O)OC[C@H]1O[C@@](C#N)(c2ccc3c(N)ncnn23)[C@H](O)[C@@H]1O
3. CC(C)C(=O)O[C@H]1[C@@H](OC(=O)C(C)C)[C@](C#N)(c2ccc3c(N)ncnn23)O[C@@H]1COC(=O)OC(C)(C)C

-0.21
0.56
0.08
